biological target: glucagon receptor (Homo sapiens, UniProt P47871); construct: expressed in transfected cells; host or cells: Chinese Hamster Ovary cells (CHO-HGR), membranes; assay: glucagon receptor binding assay (125I-glucagon, CHO-HGR membranes); conditions: 20 μM; reported where 20 μM did not reduce glucagon binding by 50%
Sequence (P47871 26-477): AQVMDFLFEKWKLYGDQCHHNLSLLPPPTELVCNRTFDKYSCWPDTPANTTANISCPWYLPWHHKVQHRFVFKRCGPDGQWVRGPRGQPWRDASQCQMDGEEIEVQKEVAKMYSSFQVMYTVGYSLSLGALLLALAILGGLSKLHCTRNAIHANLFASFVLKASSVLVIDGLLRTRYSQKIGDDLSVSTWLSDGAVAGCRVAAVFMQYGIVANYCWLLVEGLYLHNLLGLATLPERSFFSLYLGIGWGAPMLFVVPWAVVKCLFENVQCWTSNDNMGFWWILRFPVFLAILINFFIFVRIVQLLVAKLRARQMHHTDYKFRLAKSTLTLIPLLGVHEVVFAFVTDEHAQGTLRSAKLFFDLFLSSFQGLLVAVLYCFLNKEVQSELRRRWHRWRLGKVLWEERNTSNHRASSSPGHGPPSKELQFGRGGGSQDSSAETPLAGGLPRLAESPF
Rule: T for inhibition at 20 µM not less than 40%, F for anything less.

Asked: State whether the measured inhibition at 20 µM reaches 40%, counting equality as reaching it, for CCC/C=C/c1c(C(C)C)nc(C(C)C)c(CO)c1-c1ccc(C(F)(F)F)cc1
Given back: F

Asked: Threshold query (inhibition at 20 µM >= 40%) on CCCCCc1c(C(C)C)nc(C(C)C)c(CO)c1-c1ccc(CC)cc1
Given back: T

Asked: Evaluate CCCCCc1c(C(C)C)nc(C(C)C)c(CO)c1-c1ccc(O)cc1 : inhibition at 20 µM at minimum 40%?
Given back: F

Asked: Dear colleague, could you confirm whether CCCC=Cc1c(C(C)C)nc(C(C)C)c(CO)c1-c1cccc(OC)c1 has inhibition at 20 µM at or above 40%?
Given back: T

Asked: Threshold query (inhibition at 20 µM >= 40%) on CC(C)=Cc1c(C)nc(C)c(CO)c1-c1ccccc1
Given back: F

###

target: glucagon receptor (Homo sapiens, UniProt P47871); construct: expressed in transfected cells; host or cells: Chinese Hamster Ovary cells (CHO-HGR), membranes; assay: glucagon receptor binding assay (125I-glucagon, CHO-HGR membranes); conditions: 125I-glucagon; 60 min at room temperature; read-out: IC50
measured-parameter: IC50
Reply with the number and its unit after it.

Asked: Query (compound): CC(C)c1nc(C(C)C)c(CCCCc2ccccc2)c(-c2ccc(F)cc2)c1CO ; field requested: IC50
Given back: 1300 nM

Asked: Using the record for CC=Cc1c(C(C)C)nc(C(C)C)c(CO)c1-c1ccc(F)cc1 , report its IC50.
Given back: 800 nM

Asked: # query: IC50 of entry CCCC=Cc1c(C(C)C)nc(C(C)C)c(CO)c1-c1ccoc1
Given back: 12000 nM

Asked: Consider the compound shown here: CCCC=Cc1c(C(C)C)cc(C(C)C)c(CO)c1-c1ccc(F)cc1 What is its recorded IC50?
Given back: 1000 nM

Asked: Reported IC50 for COc1ccccc1SCc1c(C(C)C)nc(C(C)C)c(CO)c1-c1ccc(F)cc1 : what is it?
Given back: 1600 nM

Asked: Quick check: IC50 of CCCC=Cc1c(C(C)C)nc(C(C)C)c(CO)c1-c1ccc(F)c(F)c1 ?
Given back: 1800 nM

Asked: For the compound CC(C)c1nc2c(c(-c3ccc(F)cc3)c1C(C)O)CCC2(C)C (stereo not drawn) , what IC50 is on record?
Given back: 3100 nM

Asked: Tell me the measured IC50 of CC(C)c1nc(C(C)C)c(CSc2ccc3ccccc3c2)c(-c2ccc(F)cc2)c1CO , please.
Given back: 20000 nM

Asked: Please look up its IC50: CCCCC=Cc1c(C(C)C)nc(C(C)C)c(CO)c1-c1ccc(F)cc1
Given back: 700 nM

###

biological target: glucagon receptor (Homo sapiens); construct: expressed in transfected cells; host or cells: Chinese Hamster Ovary cells (CHO-HGR), membranes; assay: glucagon receptor binding assay (125I-glucagon, CHO-HGR membranes); conditions: 125I-glucagon; 60 min at room temperature; read-out: IC50
measured-parameter: log10 IC50 (log10 of the value in nM)
Field: value | Transform: log10 | Quantity: IC50 | Unit: nM

Asked: # query: log10 IC50 of entry CCCSCc1c(C(C)C)nc(C(C)C)c(CO)c1-c1ccc(F)cc1
Given back: 3.00

Asked: Sample CCCCCc1c(C(C)C)nc(C(C)C)c(CO)c1-c1ccc(F)cc1 — what was its log10 IC50?
Given back: 2.78

Asked: Name the recorded log10 IC50 for COc1ccc(SCc2c(C(C)C)nc(C(C)C)c(CO)c2-c2ccc(F)cc2)cc1 .
Given back: 3.28

Asked: Dear colleague, I am looking for the recorded log10 IC50 of the following compound: CC(C)c1nc(C(C)C)c(CSc2cccc(F)c2)c(-c2ccc(F)cc2)c1CO
Given back: 3.00

Asked: Which value of log10 IC50 has been reported for CCCc1c(C(C)C)nc(C(C)C)c(CO)c1-c1ccccc1 in the records?
Given back: 2.78

Asked: Could you tell me which log10 IC50 is on file for CCC=Cc1c(C(C)C)nc(C(C)C)c(CO)c1-c1ccccc1 ?
Given back: 3.48

Asked: Which log10 IC50 is reported for this compound? Cc1ccc(COCc2c(C(C)C)cc(C(C)C)c(C(C)O)c2-c2ccc(F)cc2)cc1 (single isomer, unassigned; (+))
Given back: 2.49

Asked: Look up log10 IC50 for this compound: CC(C)c1nc(C(C)C)c(CN2CCCCC2)c(-c2ccc(F)cc2)c1CO
Given back: 4.08

###

Can you tell me log10(IC50) for the items I'm about to list?
biological target: glucagon receptor (Homo sapiens, UniProt P47871); construct: expressed in transfected cells; host or cells: Chinese Hamster Ovary cells (CHO-HGR), membranes; test: glucagon receptor binding assay (125I-glucagon, CHO-HGR membranes); conditions: 125I-glucagon; 60 min at room temperature; read-out: IC50
Log10 applied to IC50; unit prior to transform: µM.

Asked: Report log10(IC50) for C=CCc1c(C(C)C)nc(C(C)C)c(CO)c1-c1ccc(F)cc1 tested on glucagon receptor (Homo sapiens, UniProt P47871).
Given back: 0.28

Asked: Param readout= log10(IC50); system= glucagon receptor (Homo sapiens, UniProt P47871); entry= CCCCCc1c(C(C)C)cc(C(C)C)c(C(C)O)c1-c1ccc(F)cc1O (stereo not shown) ; returns value.
Given back: -2.22

Asked: Notebook: pull reported log10(IC50) for glucagon receptor (Homo sapiens, UniProt P47871), entry CCCCCc1c(C(C)OCC)nc(C(C)C)c(CO)c1-c1ccc(F)cc1 (stereo not shown)
Given back: 0.90

Asked: Lookup: log10(IC50) / glucagon receptor (Homo sapiens, UniProt P47871) / CC(C)c1nc(C(C)C)c(C(C)O)c(-c2ccc(F)cc2)c1-c1ccccc1 (stereo not shown)
Given back: -0.22

Asked: Query log10(IC50) on glucagon receptor (Homo sapiens, UniProt P47871) for CCCc1c(C(C)C)cc(C(C)C)c(C(C)O)c1-c1ccc(F)cc1O (stereo not shown)
Given back: -2.30

Asked: Param readout = log10(IC50); param system = glucagon receptor (Homo sapiens, UniProt P47871); param query = CCCC=Cc1c(C(C)C)nc(C(C)C)c(CO)c1-c1ccc(Cl)cc1 ; response: value
Given back: -0.05

Asked: What value of log10(IC50) on glucagon receptor (Homo sapiens, UniProt P47871) does Cc1ccc(CCc2c(C(C)C)nc(C(C)C)c(CO)c2-c2ccc(F)cc2)cc1 have?
Given back: 0.04

Asked: Lab note: need log10(IC50) for CCCCCc1c(C(C)C)nc(C(C)C)c(CO)c1-c1ccc(F)c(F)c1 on glucagon receptor (Homo sapiens, UniProt P47871), anyone have it?
Given back: 0.04

Asked: What is its log10(IC50) for glucagon receptor (Homo sapiens, UniProt P47871)? Entry: CCCc1c(C(C)C)cc(C(C)C)c(C(C)O)c1-c1ccc(F)cc1 (single isomer, unassigned; (+))
Given back: -0.52

Asked: Please state recorded log10(IC50) (tested on glucagon receptor (Homo sapiens, UniProt P47871)) of CCCCc1c(C(C)C)nc(C(C)C)c(CO)c1-c1ccc(F)cc1
Given back: -0.12

Asked: Write down the reported log10(IC50) of CCCC=Cc1c(C(C)C)nc(C(C)C)c(CO)c1-c1ccc(F)cc1F , test system: glucagon receptor (Homo sapiens, UniProt P47871).
Given back: 0.65

Asked: What reported log10(IC50) corresponds to CC(C)CC=Cc1c(C(C)C)nc(C(C)C)c(CO)c1-c1ccc(F)cc1 on glucagon receptor (Homo sapiens, UniProt P47871)?
Given back: 0.00

Asked: Hello, I am looking for reported log10(IC50) with glucagon receptor (Homo sapiens, UniProt P47871) for CCCCCc1c(C(C)C)cc(C(C)C)c(C(C)O)c1-c1ccc(F)cc1 (stereo not shown) [Example 191] . Could you help?
Given back: -0.89

Asked: Entry CC(C)c1nc(C(C)C)c(CSc2ccc([N+](=O)[O-])cc2)c(-c2ccc(F)cc2)c1CO , system glucagon receptor (Homo sapiens, UniProt P47871): what log10(IC50) was measured?
Given back: 1.11

Asked: API: value(readout= log10(IC50), system= glucagon receptor (Homo sapiens, UniProt P47871), query= CC(C)c1nc(C(C)C)c(CCCc2ccccc2)c(-c2ccc(F)cc2)c1CO )
Given back: -0.19

Asked: Give glucagon receptor (Homo sapiens, UniProt P47871) log10(IC50) for CC(C)c1nc2c(c(-c3ccc(F)cc3)c1C(C)O)CCCC2(C)C (stereo not shown)
Given back: -0.30

Asked: Could you share what log10(IC50) was measured for CCCCCc1c(C=CC(=O)OC)nc(C(C)C)c(CO)c1-c1ccc(F)cc1 , tested on glucagon receptor (Homo sapiens, UniProt P47871)?
Given back: 1.28

Asked: Notebook entry, glucagon receptor (Homo sapiens, UniProt P47871) assay: log10(IC50) of Cc1cccc(CCc2c(C(C)C)nc(C(C)C)c(CO)c2-c2ccc(F)cc2)c1 = ?
Given back: 0.00

Asked: # value lookup — system glucagon receptor (Homo sapiens, UniProt P47871), readout log10(IC50), item CC(C)CCc1c(C(C)C)nc(C(C)C)c(CO)c1-c1ccc(F)cc1
Given back: 0.00

Asked: Lookup: log10(IC50) / glucagon receptor (Homo sapiens, UniProt P47871) / CC(C)=Cc1c(C(C)C)nc(C(C)C)c(CO)c1-c1ccccc1
Given back: 0.90

Asked: Form field: log10(IC50) recorded for Cc1cccc(/C=C/c2c(C(C)C)nc(C(C)C)c(CO)c2-c2ccc(F)cc2)c1 with glucagon receptor (Homo sapiens, UniProt P47871) (enter value)
Given back: -0.22

Asked: // map CC(C)c1nc(C(C)C)c(CO)c(-c2ccc(F)cc2)c1C=CCCc1ccccc1 to recorded log10(IC50) (system: glucagon receptor (Homo sapiens, UniProt P47871))
Given back: -0.22

Asked: // lookup log10(IC50) | system=glucagon receptor (Homo sapiens, UniProt P47871) | key= CC(C)C=Cc1c(C(C)C)nc(C(C)C)c(CO)c1-c1ccc(F)cc1
Given back: 1.30

Asked: Tell me reported log10(IC50) for CCCCCc1c(C(C)C)cc(C(C)C)c(C(C)O)c1-c1ccc(F)cc1 (single isomer, unassigned; (+)) [Example 243] , tested with glucagon receptor (Homo sapiens, UniProt P47871).
Given back: -1.07

Asked: Under glucagon receptor (Homo sapiens, UniProt P47871): log10(IC50) value of CCCCCc1c(C(C)C)nc(C(C)C)c(CO)c1-c1cccc(F)c1 ?
Given back: 0.48

Asked: Please provide the recorded log10(IC50) for CCCCCc1c(CC(C)C)nc(C(C)C)c(CO)c1-c1ccc(F)cc1 , tested on glucagon receptor (Homo sapiens, UniProt P47871).
Given back: 0.30

Asked: Write down the reported log10(IC50) of CC(C)c1nc(C(C)C)c(CN(C)C)c(-c2ccc(F)cc2)c1CO , test system: glucagon receptor (Homo sapiens, UniProt P47871).
Given back: 1.00

Asked: Request: log10(IC50), test system glucagon receptor (Homo sapiens, UniProt P47871), entry CC(C)c1nc2c(c(-c3ccc(F)cc3)c1CO)CCC2(C)C
Given back: 0.90

Asked: Report log10(IC50) for CCCC=Cc1c(C(C)C)nc(C(C)C)c(CO)c1-c1ccccc1F tested on glucagon receptor (Homo sapiens, UniProt P47871).
Given back: 1.04

Asked: Param readout = log10(IC50); param system = glucagon receptor (Homo sapiens, UniProt P47871); param query = Cc1ccc(SCc2c(C(C)C)cc(C(C)C)c(C(C)O)c2-c2ccc(F)cc2)cc1 (single isomer, unassigned; (+)) ; response: value
Given back: -0.89

Asked: Can you look up log10(IC50) on glucagon receptor (Homo sapiens, UniProt P47871) for CC(C)c1nc(C(C)C)c(CSc2c(F)c(F)cc(F)c2F)c(-c2ccc(F)cc2)c1CO ?
Given back: 0.69

Asked: Return log10(IC50) measured with glucagon receptor (Homo sapiens, UniProt P47871) given this compound: CCCC=Cc1c(C(C)C)nc(C(C)C)c(CO)c1-c1cccc(C)c1
Given back: 1.23

Asked: Entry CCC=Cc1c(C(C)C)nc(C(C)C)c(CO)c1-c1ccc(F)cc1 , system glucagon receptor (Homo sapiens, UniProt P47871): what log10(IC50) was measured?
Given back: 0.11

Asked: Missing value: log10(IC50), glucagon receptor (Homo sapiens, UniProt P47871), entry CCCc1c(C(C)C)nc(C(C)C)c(CO)c1-c1ccc(F)cc1O (single isomer, unassigned) [Example 239-E1] . Fill in?
Given back: 0.40

Origin of the recorded values: patent US6218431A
